Exercise: state measured interaction score for each of the binders provided.
targetEntity: T1, P6-AA-12HAA-S
T1 chain: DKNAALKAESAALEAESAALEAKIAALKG
testName: two-hybrid library CCmax;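 further: natural log of median RNA to DNA barcode read ratio; higher means stronger binding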
conditionInfo: mean of both orientations
Respond with the number and no other words.

Enquiry: Requested field: interaction score. Item: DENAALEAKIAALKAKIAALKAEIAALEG [4H1385-AA]
Return: 1.43

Enquiry: Requested field: interaction score. Item: DENAALEAKDAALKAKDAALKAEIAALEG [P5-AA-12HAA-D]
Return: -1.67

Enquiry: Requested field: interaction score. Item: DENAALEAKVAALKAKVAALKAEIAALEG [P5-AA-12HAA-V]
Return: 1.18

Enquiry: Requested field: interaction score. Item: DENAALEAKNAALKAKNAALKAEIAALEG [P5-AA-1HAA-N]
Return: -0.405

Enquiry: Requested field: interaction score. Item: DENAALEAKEAALKAKEAALKAEIAALEG [P5-AA-12HAA-E]
Return: -1.39

Enquiry: Requested field: interaction score. Item: DENAALEAKYAALKAKYAALKAEIAALEG [P5-AA-12HAA-Y]
Return: -1.4

Enquiry: Requested field: interaction score. Item: DENAALEAKTAALKAKTAALKAEIAALEG [P5-AA-12HAA-T]
Return: -1.61

Enquiry: Requested field: interaction score. Item: DENAALEAKSAALKAKSAALKAEIAALEG [P5-AA-12HAA-S]
Return: -1.65

Enquiry: Requested field: interaction score. Item: DENAALEAKRAALKAKRAALKAEIAALEG [P5-AA-12HAA-R]
Return: -1.83

Enquiry: Requested field: interaction score. Item: DENAALEAKAAALKAKAAALKAEIAALEG [P5-AA-12HAA-A]
Return: -1.71

Enquiry: Requested field: interaction score. Item: DENAALEAKLAALKAKLAALKAEIAALEG [P5-AA-12HAA-L]
Return: -0.666
